assay.text: Caco‐2 permeability/efflux ratio
Assay type: in vitro ADME
experimental.setup: human, Caco-2
parameter.measured: Papp at 2 µmol/L (×10⁻⁶ cm/s)
Report the value in ×10⁻⁶ cm/s with no unit label.

## Task Quickly give me recorded Papp at 2 µmol/L for C=CC(=O)N1CC2CC(n3nc(-c4ccc(C(=O)Nc5ccccn5)cc4)c4c(N)ncnc43)CC2C1 (stereo not shown) [ZYBT1]
## Result 3.3

====

assay.text: Plasma protein binding
Format: in vitro ADME
experimental.setup: rat
parameter.measured: fraction unbound
Keep it simple and answer with nothing but the number.

## Task Specify measured fraction unbound for C=CC(=O)N1CC2CC(n3nc(-c4ccc(C(=O)Nc5ccccn5)cc4)c4c(N)ncnc43)CC2C1 (stereo not shown) .
## Result 0.088

====

assay.text: In vivo pharmacokinetics in rats
Design: species or system male Wistar rats
experimental.setup: male, Wistar, rat, plasma, po, 3 mg/kg
parameter.measured: bioavailability (%)
// units = %; emit number, no label

## Task Supply bioavailability value. Item: C=CC(=O)N1CC2CC(n3nc(-c4ccc(C(=O)Nc5ccccn5)cc4)c4c(N)ncnc43)CC2C1 (stereo not shown) [ZYBT1]
## Result 75

====

measured.target: CYP3A4 (Homo sapiens)
Sequence (P08684 whole entry): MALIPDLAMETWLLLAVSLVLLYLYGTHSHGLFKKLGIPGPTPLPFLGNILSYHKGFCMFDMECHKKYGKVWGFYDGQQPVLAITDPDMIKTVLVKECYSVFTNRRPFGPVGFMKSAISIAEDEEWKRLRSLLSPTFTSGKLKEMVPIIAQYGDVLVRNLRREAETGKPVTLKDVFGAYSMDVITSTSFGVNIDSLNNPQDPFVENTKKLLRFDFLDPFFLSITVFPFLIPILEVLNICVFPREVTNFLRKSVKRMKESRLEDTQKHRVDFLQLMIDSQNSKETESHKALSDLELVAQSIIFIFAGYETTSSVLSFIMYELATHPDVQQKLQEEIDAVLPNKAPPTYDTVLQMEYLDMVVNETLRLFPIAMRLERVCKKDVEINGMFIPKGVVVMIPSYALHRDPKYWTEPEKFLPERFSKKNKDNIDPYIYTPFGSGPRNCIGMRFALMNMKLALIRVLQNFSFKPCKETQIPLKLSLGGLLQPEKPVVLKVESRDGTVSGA
pIC50: −log10 of the molar value.
parameter.measured: pIC50

## Task Find pIC50 for C=CC(=O)N1CC2CC(n3nc(-c4ccc(C(=O)Nc5ccccn5)cc4)c4c(N)ncnc43)CC2C1 (stereo not shown) [ZYBT1] on CYP3A4 (Homo sapiens) and write it down.
## Result < 4.52

====

measured.target: HCK (Homo sapiens)
Sequence (P08631 whole entry): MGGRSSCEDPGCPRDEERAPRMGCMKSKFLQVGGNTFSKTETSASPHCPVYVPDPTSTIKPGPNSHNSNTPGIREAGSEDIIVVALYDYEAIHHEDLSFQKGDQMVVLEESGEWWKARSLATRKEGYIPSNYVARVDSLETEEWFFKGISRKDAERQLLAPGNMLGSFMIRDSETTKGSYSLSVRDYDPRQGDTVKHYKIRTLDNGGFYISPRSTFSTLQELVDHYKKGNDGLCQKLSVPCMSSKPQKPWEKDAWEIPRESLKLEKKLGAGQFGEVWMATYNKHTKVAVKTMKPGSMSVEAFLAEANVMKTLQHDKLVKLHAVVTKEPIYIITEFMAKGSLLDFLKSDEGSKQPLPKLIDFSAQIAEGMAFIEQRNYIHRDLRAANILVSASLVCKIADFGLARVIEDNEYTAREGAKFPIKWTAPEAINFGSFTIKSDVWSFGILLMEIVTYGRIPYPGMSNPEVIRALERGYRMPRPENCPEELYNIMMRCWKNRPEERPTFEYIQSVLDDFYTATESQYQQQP
parameter.measured: IC50

## Task Report value: IC50, system: HCK (Homo sapiens), compound: C=CC(=O)N1CC2CC(n3nc(-c4ccc(C(=O)Nc5ccccn5)cc4)c4c(N)ncnc43)CC2C1 (stereo not shown) [ZYBT1]
## Result > 10 µM

====

Protein target, amino acids: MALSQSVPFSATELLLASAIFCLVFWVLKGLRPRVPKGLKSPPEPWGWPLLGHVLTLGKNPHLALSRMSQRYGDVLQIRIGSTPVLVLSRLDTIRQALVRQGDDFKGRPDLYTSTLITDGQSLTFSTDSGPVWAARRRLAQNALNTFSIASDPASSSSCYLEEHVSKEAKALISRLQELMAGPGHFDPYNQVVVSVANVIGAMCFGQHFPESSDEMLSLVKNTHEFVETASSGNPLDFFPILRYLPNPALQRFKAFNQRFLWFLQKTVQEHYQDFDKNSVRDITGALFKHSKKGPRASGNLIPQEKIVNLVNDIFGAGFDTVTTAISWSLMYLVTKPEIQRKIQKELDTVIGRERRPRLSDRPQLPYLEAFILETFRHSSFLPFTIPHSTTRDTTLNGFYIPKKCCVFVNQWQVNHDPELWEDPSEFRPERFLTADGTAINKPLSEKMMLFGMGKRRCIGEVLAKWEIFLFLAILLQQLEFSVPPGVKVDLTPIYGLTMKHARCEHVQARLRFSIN
pIC50: −log10 of the molar value.
parameter.measured: pIC50

## Task Recall and state the measured pIC50 for C=CC(=O)N1CC2CC(n3nc(-c4ccc(C(=O)Nc5ccccn5)cc4)c4c(N)ncnc43)CC2C1 (stereo not shown) .
## Result < 4.52

====

assay.text: Plasma protein binding
Assay type: in vitro ADME
experimental.setup: human
parameter.measured: fraction unbound

## Task Item C=CC(=O)N1CC2CC(n3nc(-c4ccc(C(=O)Nc5ccccn5)cc4)c4c(N)ncnc43)CC2C1 (stereo not shown) [ZYBT1] : provide fraction unbound
## Result 0.016
